The next entries give measured pIC50 for eeAChE (Electrophorus electricus, UniProt O42275).
Give bare numbers, as −log10 of the molar value.

Enquiry: Consider the molecule CC1=NN(c2ccc(C(=O)NCc3cc[n+](Cc4cccc(Cl)c4)cc3)cc2)C(=O)C1 . State its measured pIC50.
Return: 5.48

Enquiry: Consider the molecule CC1=NN(c2ccc(C(=O)NCc3cc[n+](Cc4ccccc4C)cc3)cc2)C(=O)C1 . State its measured pIC50.
Return: 4.70

Enquiry: Consider the molecule CC1=NN(c2ccc(C(=O)NCc3cc[n+](Cc4ccc(C)cc4)cc3)cc2)C(=O)C1 . State its measured pIC50.
Return: 4.02

Next:
Enquiry: Consider the molecule CC1=NN(c2ccc(C(=O)NCc3cc[n+](Cc4ccccc4Br)cc3)cc2)C(=O)C1 . State its measured pIC50.
Return: 5.46

----------
# ASSAY_PROCEDURE: DPPH+ free radical scavenging antioxidant assay
# CONDITION: 0.12 mM DPPH+ in methanol, 30 min, 25 °C, 517 nm; read-out: DPPH+ IC50
Can you tell me pIC50 for the items I'm about to list?
Numbers only, as −log10 of the molar value.

Solved cases (7 shown):
Enquiry: Consider the molecule CC1=NN(c2ccc(C(=O)NCc3cc[n+](Cc4ccccc4C)cc3)cc2)C(=O)C1 . State its measured pIC50.
Return: 5.02

Enquiry: Consider the molecule CC1=NN(c2ccc(C(=O)NCc3cc[n+](Cc4ccc(F)cc4)cc3)cc2)C(=O)C1 . State its measured pIC50.
Return: 4.94

Enquiry: Consider the molecule CC1=NN(c2ccc(C(=O)NCc3cc[n+](Cc4ccc(C)cc4)cc3)cc2)C(=O)C1 . State its measured pIC50.
Return: 4.84

Enquiry: Consider the molecule CC1=NN(c2ccc(C(=O)NCc3cc[n+](Cc4cccc(Cl)c4)cc3)cc2)C(=O)C1 . State its measured pIC50.
Return: 4.88

Enquiry: Consider the molecule CC1=NN(c2ccc(C(=O)NCc3cc[n+](Cc4cccc(C)c4)cc3)cc2)C(=O)C1 . State its measured pIC50.
Return: 4.56

Enquiry: Consider the molecule Cc1c(C)c2c(c(C)c1O)CCC(C)(C(=O)O)O2 (centres unmarked) [Trolox, reference compound] . State its measured pIC50.
Return: 4.88

Enquiry: Consider the molecule CC1=NN(c2ccc(C(=O)NCc3cc[n+](Cc4ccccc4F)cc3)cc2)C(=O)C1 . State its measured pIC50.
Return: 4.54

Next:
Enquiry: Consider the molecule CC1=NN(c2ccc(C(=O)NCc3cc[n+](Cc4ccccc4Cl)cc3)cc2)C(=O)C1 . State its measured pIC50.
Return: 4.86

----------
# SYSTEM_UNDER_TEST: eeAChE (Electrophorus electricus, UniProt O42275)
# Sequence (O42275 24-633): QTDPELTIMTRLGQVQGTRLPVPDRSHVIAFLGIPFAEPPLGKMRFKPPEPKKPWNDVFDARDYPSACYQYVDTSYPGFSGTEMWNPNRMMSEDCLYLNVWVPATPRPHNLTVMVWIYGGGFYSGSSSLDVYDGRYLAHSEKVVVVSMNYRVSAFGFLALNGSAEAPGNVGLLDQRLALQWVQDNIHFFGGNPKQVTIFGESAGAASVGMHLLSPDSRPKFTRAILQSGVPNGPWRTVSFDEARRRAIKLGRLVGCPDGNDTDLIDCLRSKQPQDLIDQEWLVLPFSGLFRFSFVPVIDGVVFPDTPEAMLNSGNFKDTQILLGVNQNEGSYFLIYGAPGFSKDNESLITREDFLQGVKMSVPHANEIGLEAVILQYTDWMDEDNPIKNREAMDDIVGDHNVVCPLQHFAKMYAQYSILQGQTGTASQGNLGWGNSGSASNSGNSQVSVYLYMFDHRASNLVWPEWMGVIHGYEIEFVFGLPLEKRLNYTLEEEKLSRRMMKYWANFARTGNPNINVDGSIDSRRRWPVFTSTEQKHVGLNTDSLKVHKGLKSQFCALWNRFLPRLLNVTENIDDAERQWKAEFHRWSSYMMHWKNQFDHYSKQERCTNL
Can you tell me pIC50 for the items I'm about to list?
Answers are plain numbers, as −log10 of the molar value.

Solved cases (2 shown):
Enquiry: Give pIC50 for CC1=NN(c2ccc(C(=O)NCc3cc[n+](Cc4ccccc4F)cc3)cc2)C(=O)C1 [Compound 5b] tested on eeAChE (Electrophorus electricus, UniProt O42275).
Return: 5.92

Enquiry: Give pIC50 for CC1=NN(c2ccc(C(=O)NCc3cc[n+](Cc4cccc(F)c4)cc3)cc2)C(=O)C1 [Compound 5c] tested on eeAChE (Electrophorus electricus, UniProt O42275).
Return: 5.34

Let's switch to this compound now.
Enquiry: Give pIC50 for CC1=NN(c2ccc(C(=O)NCc3cc[n+](Cc4ccccc4Cl)cc3)cc2)C(=O)C1 [Compound 5e] tested on eeAChE (Electrophorus electricus, UniProt O42275).
Return: 5.72

----------
Can you tell me IC50 for the items I'm about to list?
# ASSAY_PROCEDURE: DPPH+ free radical scavenging antioxidant assay
# CONDITION: 0.12 mM DPPH+ in methanol, 30 min, 25 °C, 517 nm; read-out: DPPH+ IC50
Just the number plus its unit, please.

Solved cases (5 shown):
Enquiry: Consider the compound CC1=NN(c2ccc(C(=O)NCc3cc[n+](Cc4ccccc4)cc3)cc2)C(=O)C1 . State its measured IC50.
Return: 22.9 µM

Enquiry: Consider the compound CC1=NN(c2ccc(C(=O)NCc3ccncc3)cc2)C(=O)C1 . State its measured IC50.
Return: 12.5 µM

Enquiry: Consider the compound CC1=NN(c2ccc(C(=O)O)cc2)C(=O)C1 . State its measured IC50.
Return: 45.7 µM

Enquiry: Consider the compound CC1=NN(c2ccc(C(=O)NCc3cc[n+](Cc4ccccc4Br)cc3)cc2)C(=O)C1 . State its measured IC50.
Return: 19 µM

Enquiry: Consider the compound CC1=NN(c2ccc(C(=O)NCc3cc[n+](Cc4cccc(F)c4)cc3)cc2)C(=O)C1 . State its measured IC50.
Return: 25 µM

For each of the compounds below, state IC50.
1. CC1=NN(c2ccc(C(=O)NCc3cc[n+](Cc4cccc(Br)c4)cc3)cc2)C(=O)C1
2. CC1=NN(c2ccc(C(=O)NCc3cc[n+](Cc4ccc(Br)cc4)cc3)cc2)C(=O)C1

Return:
["13.3 µM", "18.1 µM"]

----------
# SYSTEM_UNDER_TEST: eqBuChE (Equus caballus)
# Sequence (P81908 whole entry): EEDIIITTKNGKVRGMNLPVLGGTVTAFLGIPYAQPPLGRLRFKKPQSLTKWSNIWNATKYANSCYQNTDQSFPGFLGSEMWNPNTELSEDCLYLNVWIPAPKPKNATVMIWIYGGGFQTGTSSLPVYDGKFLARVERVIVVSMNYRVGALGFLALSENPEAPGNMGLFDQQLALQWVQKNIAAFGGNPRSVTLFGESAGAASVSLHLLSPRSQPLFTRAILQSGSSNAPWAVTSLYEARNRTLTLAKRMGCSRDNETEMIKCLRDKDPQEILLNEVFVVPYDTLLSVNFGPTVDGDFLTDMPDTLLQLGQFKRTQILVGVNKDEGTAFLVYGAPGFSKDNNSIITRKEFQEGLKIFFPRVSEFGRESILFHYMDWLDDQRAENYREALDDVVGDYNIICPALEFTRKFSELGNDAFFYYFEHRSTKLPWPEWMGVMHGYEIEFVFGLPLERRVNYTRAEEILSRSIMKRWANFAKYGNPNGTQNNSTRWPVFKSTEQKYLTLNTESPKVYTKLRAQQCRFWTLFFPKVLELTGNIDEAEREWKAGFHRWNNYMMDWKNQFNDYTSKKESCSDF
# ASSAY_PROCEDURE: Cholinesterase inhibition assay (modified Ellman's method), eqBuChE
# CONDITION: 25 °C, triplicate, read-out: BuChE IC50
REPORTED_METRIC: IC50 (µM)
Answers are plain numbers, in µM.

Enquiry: Give IC50 for CC1=NN(c2ccc(C(=O)NCc3cc[n+](Cc4cccc(Cl)c4)cc3)cc2)C(=O)C1 tested on eqBuChE (Equus caballus).
Return: 891

Enquiry: Give IC50 for CC1=NN(c2ccc(C(=O)NCc3cc[n+](Cc4ccccc4C)cc3)cc2)C(=O)C1 tested on eqBuChE (Equus caballus).
Return: 630

Enquiry: Give IC50 for CC1=NN(c2ccc(C(=O)NCc3cc[n+](Cc4cccc(F)c4)cc3)cc2)C(=O)C1 tested on eqBuChE (Equus caballus).
Return: 926

For each of the molecules below, state IC50.
1. CC1=NN(c2ccc(C(=O)NCc3cc[n+](Cc4ccccc4Cl)cc3)cc2)C(=O)C1
2. CC1=NN(c2ccc(C(=O)NCc3cc[n+](Cc4ccccc4Br)cc3)cc2)C(=O)C1

Return:
890
160

----------
The next entries give measured pIC50 for eeAChE (Electrophorus electricus).
One number for each entry, as −log10 of the molar value.

Solved cases (3 shown):
Enquiry: Consider the compound CC1=NN(c2ccc(C(=O)NCc3cc[n+](Cc4ccccc4)cc3)cc2)C(=O)C1 [Compound 5a] . State its measured pIC50.
Return: 4.52

Enquiry: Consider the compound CC1=NN(c2ccc(C(=O)NCc3cc[n+](Cc4ccc(Br)cc4)cc3)cc2)C(=O)C1 [Compound 5i] . State its measured pIC50.
Return: 4.94

Enquiry: Consider the compound CC1=NN(c2ccc(C(=O)NCc3cc[n+](Cc4ccc(F)cc4)cc3)cc2)C(=O)C1 [Compound 5d] . State its measured pIC50.
Return: 5.44

Let's switch to this compound now.
Enquiry: Consider the compound CC1=NN(c2ccc(C(=O)NCc3cc[n+](Cc4cccc(C)c4)cc3)cc2)C(=O)C1 [Compound 5k] . State its measured pIC50.
Return: 4.16

----------
Can you tell me SI AChE (AChE selectivity index = IC50(eqBuChE)/IC50(eeAChE)) for the items I'm about to list?
# SYSTEM_UNDER_TEST: eeAChE (Electrophorus electricus, UniProt O42275)
# Construct: purchased Sigma-Aldrich
# ASSAY_PROCEDURE: Cholinesterase inhibition assay (modified Ellman's method), eeAChE
# Format: biochemical
# CONDITION: ratio BuChE/AChE
Give bare numbers.

Enquiry: Give SI AChE (AChE selectivity index = IC50(eqBuChE)/IC50(eeAChE)) for CC1=NN(c2ccc(C(=O)NCc3cc[n+](Cc4ccccc4C)cc3)cc2)C(=O)C1 [Compound 5j] tested on eeAChE (Electrophorus electricus, UniProt O42275).
Return: 32

Enquiry: Give SI AChE (AChE selectivity index = IC50(eqBuChE)/IC50(eeAChE)) for CC1=NN(c2ccc(C(=O)NCc3cc[n+](Cc4cccc(F)c4)cc3)cc2)C(=O)C1 [Compound 5c] tested on eeAChE (Electrophorus electricus, UniProt O42275).
Return: 201

Enquiry: Give SI AChE (AChE selectivity index = IC50(eqBuChE)/IC50(eeAChE)) for CC1=NN(c2ccc(C(=O)NCc3cc[n+](Cc4cccc(Cl)c4)cc3)cc2)C(=O)C1 [Compound 5f] tested on eeAChE (Electrophorus electricus, UniProt O42275).
Return: 270

Enquiry: Give SI AChE (AChE selectivity index = IC50(eqBuChE)/IC50(eeAChE)) for CC1=NN(c2ccc(C(=O)NCc3cc[n+](Cc4ccccc4Br)cc3)cc2)C(=O)C1 [Compound 5g] tested on eeAChE (Electrophorus electricus, UniProt O42275).
Return: 46

Let's switch to this molecule now.
Enquiry: Give SI AChE (AChE selectivity index = IC50(eqBuChE)/IC50(eeAChE)) for CC1=NN(c2ccc(C(=O)NCc3cc[n+](Cc4ccccc4Cl)cc3)cc2)C(=O)C1 [Compound 5e] tested on eeAChE (Electrophorus electricus, UniProt O42275).
Return: 468
